B1: library; numbered along this chain (parent)
chain: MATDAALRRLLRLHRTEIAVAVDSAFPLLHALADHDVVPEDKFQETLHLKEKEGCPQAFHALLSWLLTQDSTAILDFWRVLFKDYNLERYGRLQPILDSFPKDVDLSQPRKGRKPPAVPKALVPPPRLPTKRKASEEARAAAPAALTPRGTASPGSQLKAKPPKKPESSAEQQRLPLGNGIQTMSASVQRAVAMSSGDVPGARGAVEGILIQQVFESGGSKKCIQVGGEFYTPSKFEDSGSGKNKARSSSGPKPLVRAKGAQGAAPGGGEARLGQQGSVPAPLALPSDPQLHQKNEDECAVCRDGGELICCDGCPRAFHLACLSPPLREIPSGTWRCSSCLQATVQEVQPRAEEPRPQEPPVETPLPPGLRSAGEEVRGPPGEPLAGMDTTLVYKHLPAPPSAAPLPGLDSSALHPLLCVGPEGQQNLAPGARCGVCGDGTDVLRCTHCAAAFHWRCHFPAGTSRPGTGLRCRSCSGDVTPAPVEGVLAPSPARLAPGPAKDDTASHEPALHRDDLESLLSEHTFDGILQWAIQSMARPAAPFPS

variants of: B1; experiment: AIRE transcriptional activation functional score (insulin promoter-GFP; nonsense median 0, synonymous median 1) (normalised score); higher = higher AIRE activity (more reporter activation); conditions: with insulin promoter-GFP reporter in HEK293
Property: AIRE transcriptional activation functional score; scope: individual variants
The answer should be written as a number, with no unit following it.

Field: example entries. Status: answers known.
G486D 0.692
N295G 0.969
Y90K -0.475
A134R 0.538
G263H 0.227
P483C 1.44
G305F 0.497
T364D 0.191

[Q] Answer with the recorded AIRE transcriptional activation functional score of I528R only.
[A] 0.161

[Q] Answer with the recorded AIRE transcriptional activation functional score of R316C only.
[A] 1.22

[Q] Answer with the recorded AIRE transcriptional activation functional score of E216H only.
[A] 0.489
